meta.source: the supplement of paper PMC5998384

System: HeLa Kyoto
Assay: thermal stability score vs G1/S (z-score of summed log2 fold changes over temperatures); higher = more thermally stable than in G1/S
Conditions: cell cycle stage: early G1 (4.5 h after nocodazole release)
Attribute Measured: thermal stability score

INSERT INTO results (ordered_residues, attribute_measured, val) VALUES
  ('MGASARLLRAVIMGAPGSGKGTVSSRITTHFELKHLSSGDLLRDNMLRGTEIGVLAKAFIDQGKLIPDDVMTRLALHELKNLTQYSWLLDGFPRTLPQAEALDRAYQIDTVINLNVPFEVIKQRLTARWIHPASGRVYNIEFNPPKTVGIDDLTGEPLIQREDDKPETVIKRLKAYEDQTKPVLEYYQKKGVLETFSGTETNKIWPYVYAFLQTKVPQRSQKASVTP [AK3]', 'thermal stability score', -1.02),
  ('MAAAEPSPRRVGFVGAGRMAGAIAQGLIRAGKVEAQHILASAPTDRNLCHFQALGCRTTHSNQEVLQSCLLVIFATKPHVLPAVLAEVAPVVTTEHILVSVAAGVSLSTLEELLPPNTRVLRVLPNLPCVVQEGAIVMARGRHVGSSETKLLQHLLEACGRCEEVPEAYVDIHTGLSGSGVAFVCAFSEALAEGAVKMGMPSSLAHRIAAQTLLGTAKMLLHEGQHPAQLRSDVCTPGGTTIYGLHALEQGGLRAATMSAVEAATCRAKELSRK [PYCRL]', 'thermal stability score', -1.28),
  ('MAATAAEAVASGSGEPREEAGALGPAWDESQLRSYSFPTRPIPRLSQSDPRAEELIENEEPVVLTDTNLVYPALKWDLEYLQENIGNGDFSVYSASTHKFLYYDEKKMANFQNFKPRSNREEMKFHEFVEKLQDIQQRGGEERLYLQQTLNDTVGRKIVMDFLGFNWNWINKQQGKRGWGQLTSNLLLIGMEGNVTPAHYDEQQNFFAQIKGYKRCILFPPDQFECLYPYPVHHPCDRQSQVDFDNPDYERFPNFQNVVGYETVVGPGDVLYIPMYWWHHIESLLNGGITITVNFWYKGAPTPKRIEYPLKAHQKVAIMRNIEKMLGEALGNPQEVGPLLNTMIKGRYN [HIF1AN]', 'thermal stability score', 0.637);

Just so you know, measured thermal stability score for MLEEDMEVAIKMVVVGNGAVGKSSMIQRYCKGIFTKDYKKTIGVDFLERQIQVNDEDVRLMLWDTAGQEEFDAITKAYYRGAQACVLVFSTTDRESFEAVSSWREKVVAEVGDIPTVLVQNKIDLLDDSCIKNEEAEALAKRLKLRFYRTSVKEDLNVNEVFKYLAEKYLQKLKQQIAEDPELTHSSSNKIGVFNTSGGSHSGQNSGTLNGGDVINLRPNKQRTKKNRNPFSSCSIP [RAB23] came out at 1.88

---

Test system: HeLa Kyoto
Assay: solubility in G1/S (NP-40 vs SDS abundance) (log2 ratio); higher = more soluble
Settings: cell cycle stage: G1/S
solubility in G1/S (log2) by entry:
Form rule: numeric answer, no unit written next to it.

INSERT INTO measurements (ordered_residues, val) VALUES
  ('MGAVTDDEVIRKRLLIDGDGAGDDRRINLLVKSFIKWCNSGSQEEGYSQYQRMLSTLSQCEFSMGKTLLVYDMNLREMENYEKIYKEIECSIAGAHEKIAECKKQILQAKRIRKNRQEYDALAKVIQHHPDRHETLKELEALGKELEHLSHIKESVEDKLELRRKQFHVLLSTIHELQQTLENDEKLSEVEEAQEASMETDPKP [THOC7]', -0.022),
  ('MPMFIVNTNVPRASVPDGFLSELTQQLAQATGKPPQYIAVHVVPDQLMAFGGSSEPCALCSLHSIGKIGGAQNRSYSKLLCGLLAERLRISPDRVYINYYDMNAANVGWNNSTFA [MIF]', 0.405),
  ('MAERQEEQRGSPPLRAEGKADAEVKLILYHWTHSFSSQKVRLVIAEKALKCEEHDVSLPLSEHNEPWFMRLNSTGEVPVLIHGENIICEATQIIDYLEQTFLDERTPRLMPDKESMYYPRVQHYRELLDSLPMDAYTHGCILHPELTVDSMIPAYATTRIRSQIGNTESELKKLAEENPDLQEAYIAKQKRLKSKLLDHDNVKYLKKILDELEKVLDQVETELQRRNEETPEEGQQPWLCGESFTLADVSLAVTLHRLKFLGFARRNWGNGKRPNLETYYERVLKRKTFNKVLGHVNNILISAVLPTAFRVAKKRAPKVLGTTLVVGLLAGVGYFAFMLFRKRLGSMILAFRPRPNYF [GDAP1]', -0.194);

# lookup: MGELPLDINIQEPRWDQSTFLGRARHFFTVTDPRNLLLSGAQLEASRNIVQNYRAGVVTPGITEDQLWRAKYVYDSAFHPDTGEKVVLIGRMSAQVPMNMTITGCMLTFYRKTPTVVFWQWVNQSFNAIVNYSNRSGDTPITVRQLGTAYVSATTGAVATALGLKSLTKHLPPLVGRFVPFAAVAAANCINIPLMRQRELQVGIPVADEAGQRLGYSVTAAKQGIFQVVISRICMAIPAMAIPPLIMDTLEKKDFLKRRPWLGAPLQVGLVGFCLVFATPLCCALFPQKSSIHISNLEPELRAQIHEQNPSVEVVYYNKGL [SFXN3] on HeLa Kyoto, solubility in G1/S (log2) = 0.286

# lookup: MAGKAHRLSAEERDQLLPNLRAVGWNELEGRDAIFKQFHFKDFNRAFGFMTRVALQAEKLDHHPEWFNVYNKVHITLSTHECAGLSERDINLASFIEQVAVSMT [PCBD1] on HeLa Kyoto, solubility in G1/S (log2) = 0.0398

# lookup: MAFVTRQFMRSVSSSSTASASAKKIIVKHVTVIGGGLMGAGIAQVAAATGHTVVLVDQTEDILAKSKKGIEESLRKVAKKKFAENLKAGDEFVEKTLSTIATSTDAASVVHSTDLVVEAIVENLKVKNELFKRLDKFAAEHTIFASNTSSLQITSIANATTRQDRFAGLHFFNPVPVMKLVEVIKTPMTSQKTFESLVDFSKALGKHPVSCKDTPGFIVNRLLVPYLMEAIRLYERGDASKEDIDTAMKLGAGYPMGPFELLDYVGLDTTKFIVDGWHEMDAENPLHQPSPSLNKLVAENKFGKKTGEGFYKYK [HADH] on HeLa Kyoto, solubility in G1/S (log2) = 0.267
